Assay: NCI Yeast Anticancer Drug Screen. Data for the mlh1 rad18 strain (AID 175)
Conditions: S. cerevisiae mlh1 rad18 strain growth inhibition; at 50.0 µM (retest, dose inferred, filed as 5.0); stronger effect = higher value
Compounds without any hit were thinned out: in the full panel of roughly 79,000, 15% have a hit.

# molecule, growth inhibition [%]
data = [
    ("COc1ccc(CCCCI)cc1", 98),
    ("CC1(C)C2CCC1(CS(=O)O)C(=O)C2.[Ag] (stereo unspecified)", 99),
    ("CC(CCCOC(c1ccccc1)(c1ccccc1)c1ccccc1)OC(=O)Nc1ccccc1 (stereo unspecified)", 93),
    ("CCCCC(=O)OC1=C(Br)C(=O)c2ccccc2C1=O", 98),
    ("CCCn1c2ccccc2c2ccc3c(c21)C(=O)C=CC3=O", 77),
    ("CCCOC(=O)C1CCCCC1C(=O)OCCC (stereo unspecified)", -4),
]

* * *

Assay: NCI Yeast Anticancer Drug Screen. Data for the sgs1 mgt1 strain (AID 161);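 note: 0% = growth of cultures given vehicle only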
Settings: S. cerevisiae sgs1 mgt1 strain, at 50.0 µM (retest, dose inferred, filed as 5.0)
The panel holds about 79,000 compounds, 15% with a hit somewhere; the sample as a whole holds those more often. Activity calls are given as the source filed them. Cut-off read from the data, not from the text of the source: active = growth inhibition above about 70%; inactive = the rest.
Classes used: active, inactive

# compound, class label
records = [
    ("CCC(C)(C[NH-])C[NH-].[Cl][Pt+2][Cl]", "inactive"),
    ("CC(=O)OCc1cc(=O)n(C)c2c3c4c(cc12)c(C)cc(=O)n4CO3", "active"),
    ("CCCCCCCCCCCCNC(=O)c1ccc[n+](Cc2ccc(Cl)c(Cl)c2)c1", "active"),
    ("COc1cccc(C2c3cc4c(cc3OC(O)C2C)OCO4)c1O (configuration not stated)", "inactive"),
    ("[Ce+3].[Cl-].[O-]/N=C(\\c1ccccc1)c1ccccn1.[O-]/N=C(\\c1ccccc1)c1ccccn1.[O-]/N=C(\\c1ccccc1)c1ccccn1", "active"),
    ("Cc1cc(N(CCOS(C)(=O)=O)CCOS(C)(=O)=O)ccc1C=Nc1cc(Br)c(O)c(Br)c1", "inactive"),
    ("O=C(O)CN(CCN1CC(=O)OC(=O)C1)CCN1CC(=O)OC(=O)C1", "inactive"),
    ("CCCCNC(=S)N/N=C/c1cccc(C)n1", "active"),
    ("Cc1ccc(S(=O)(=O)NCCCSCCO)cc1", "inactive"),
    ("O=[N+]([O-])c1ccc(C2=C[P+](c3ccccc3)(c3ccccc3)C=C(c3ccccc3)O2)cc1", "active"),
    ("COc1ccc(CC2c3cc4c(cc3CCN2C)OCO4)c(C=O)c1OC (configuration not stated)", "inactive"),
    ("CC(C)(C)OC(=O)N(CCCCNCc1ccc2ccccc2c1)CCCNCc1ccc2ccccc2c1", "active"),
    ("COc1cccc(/C=C(\\NC(=O)c2ccccc2)c2nc3ccccc3s2)c1", "active"),
    ("N#CC1=C(C#N)Sc2nc3cc(Cl)ccc3nc2S1", "active"),
    ("C/C(=N/NC(=S)Nc1cccc(Cl)c1)c1ccccn1", "active"),
    ("Cc1ccc(S(=O)(=O)Oc2ccc(C(C)(C)C)cc2Cl)cc1", "inactive"),
    ("CCc1scc(C)[n+]1CC(=O)c1cccc([N+](=O)[O-])c1", "inactive"),
    ("S=c1[nH]nc(SCc2ccc(Cl)c(Cl)c2)c2[nH]cnc12", "inactive"),
    ("Cc1ccc(-c2c(C#N)c(S)n(NS(=O)(=O)c3ccccc3)c(=O)c2C#N)cc1", "active"),
    ("COc1ccc2c(c1)CCCN2CCCCCCCN1CCCCC1", "active"),
    ("Cn1c(CCC2(C)Cc3ccccc3C(=O)O2)cc2ccccc2c1=O (configuration not stated)", "active"),
    ("CCOP(=O)(CCC(=O)[C@@]1(O)CC[C@H]2[C@@H]3CCC4=CC(=O)CC[C@]4(C)[C@H]3CC[C@@]21C)OCC", "inactive"),
    ("CCC(=O)/C(=C\\c1ccccc1)C(=O)C(C)CN(C)C (configuration not stated)", "inactive"),
    ("C/C=C/c1ccc(OCC(=O)O)c(OC)c1", "inactive"),
    ("Nc1nc(N)c(N=O)c(Nc2cccc(Br)c2)n1", "active"),
    ("CCC(C)OC(=S)S (configuration not stated)", "inactive"),
    ("Cc1ccc2c(c1)[n+]([O-])c(N)n[n+]2[O-]", "inactive"),
    ("COc1ccc(OC)c(/C=C2/C(=O)ON=C2C)c1", "inactive"),
    ("O=C(O)/C(=C\\c1ccc(O)cc1)c1cccc2ccccc12", "inactive"),
    ("FC(F)(F)c1cccc(COCCN2CCN(Cc3cccc(C(F)(F)F)c3)CC2)c1", "active"),
    ("COC(CO)(OC)c1ccccc1", "inactive"),
    ("COc1cccc2c1C(=O)c1c(O)c3c(c(O)c1C2=O)C[C@@](O)(C(=O)CO)C[C@@H]3OC1CC(N)CC(C)O1 (some centres not stated)", "active"),
]

* * *

Test: NCI Yeast Anticancer Drug Screen. Data for the bub3 strain (AID 167)
Conditions: S. cerevisiae bub3 mutant strain, at 50.0 µM (retest, dose inferred, filed as 5.0), stronger effect = higher value
About 79,000 compounds went through this panel and 15% of them were active in at least one assay; those are over-represented in the sample as a whole.
Mark not met for growth inhibition values under 10%, and met for everything at or above.

# compound, class label
data = [
    ("O=C1CSC(Cc2nc3ccccc3[nH]2)=N1", "met"),
    ("CCCCCCCCCCCCCCCCN", "met"),
    ("CC(=O)N(C(C)=O)C1=C2c3ccccc3N(S(=O)(=O)c3ccccc3)C2n2c(=O)n(-c3ccccc3)c(=O)n2C1 (stereo unspecified)", "met"),
    ("N#Cc1c(Cl)nnc(-c2ccccc2)c1-c1ccccc1", "met"),
    ("Oc1cc(CNCc2ccccc2)c(O)c(CNCc2ccccc2)c1", "not met"),
    ("C/C=C/C=C\\C1OC(O)([C@H](CC)C(=O)NC/C=C/C=C(\\C)[C@H](OC)C(C)C2OC(\\C=C/C=C/C=C(\\C)C(=O)c3c(O)ccn(C)c3=O)[C@H](O)[C@@H]2O)C(O)C(O)C1(C)C (stereo partly specified)", "not met"),
    ("O=C(NCc1ccccc1)N1CCN(c2ccccc2)C1=O", "met"),
    ("Cc1ccnc2ccc3ccccc3c12", "not met"),
    ("C1=C(c2ccccc2)CCc2ccccc21", "not met"),
    ("O=C(N/N=C/c1ccccc1[O-])c1ccccc1O.O=C(N/N=C/c1ccccc1[O-])c1ccccc1O.[Mn+2]", "met"),
    ("O=C(c1ccc(OCC(O)CN2CCN(c3ccccc3)CC2)cc1)c1cc2ccccc2c2ccccc12 (stereo unspecified)", "met"),
    ("CCCCC(=O)OC1=C(Br)C(=O)c2ccccc2C1=O", "met"),
    ("CC(O)C(NC(=O)OCc1ccccc1)C(=O)OC(c1ccccc1)c1ccccc1 (stereo unspecified)", "met"),
    ("OCN(CO)c1ccc2c(c1)Cc1cc(F)ccc1-2", "met"),
    ("CC1(C(=O)O)CCC2(C)CCC3(C)C(=CC(=O)C4C5(C)CCC(O)C(C)(C)C5CCC43C)C2C1 (stereo unspecified)", "met"),
]

* * *

Test: NCI Yeast Anticancer Drug Screen. Data for the rad50 strain (AID 155);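 note: 0% = growth of vehicle-only cultures of the same strain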
Details: S. cerevisiae rad50 strain growth inhibition; at 50.0 µM; stronger effect = higher value
Compounds without any hit were thinned out: in the full panel of roughly 79,000, 15% have a hit.

# molecule, growth inhibition (%)
rows = [
    ("S=c1nc(C(c2ccccc2)c2ccccc2)[nH][nH]1", 29.1),
    ("C=C(CN(C)C)C(=O)c1ccccc1C", 87.6),
    ("CC(C)C(CC(C)(C)C)OC(=O)Nc1cccc2ccccc12 (configuration not stated)", 13.1),
    ("CCCN1CCN(c2ccc([N+](=O)[O-])c3no[n+]([O-])c23)CC1", 89),
    ("COc1cc(C2C(C(=O)O)=C(C)Oc3cc4c(cc32)OCO4)cc(OC)c1OC (configuration not stated)", 94.2),
    ("CC(CN(C)C)C(/C=C/c1ccc(Cl)cc1)=N\\NC(=O)c1ccccc1 (configuration not stated)", 17.6),
    ("CC(C)OC(=O)Oc1c(Cl)c(Cl)c(Cl)c(Cl)c1Cl", 62),
    ("CCN(CC)C(=O)CCCCC(=O)OC(C)C", -2.2),
    ("C(CCCCCN1CCCCC1)CCCCN1CCCCC1", -2.7),
    ("O=c1sc(=S)[nH]c2ccccc12", 76.8),
    ("CSC1=NSC(c2ccccc2)=C(c2ccccc2)S1", 7.95),
    ("CCC(=O)/C(=C\\c1ccccc1)C(=O)C(C)CN(C)C (configuration not stated)", 7),
    ("CC(C)COC(=O)c1ccc(NC(=O)CCl)cc1", 62.1),
    ("COc1ccc(C2=C(Cl)C(=O)N(c3ccc(C)cc3)C(=O)C2(Cl)Cl)cc1", 83.3),
    ("Cc1cc(NS(=O)(=O)c2ccc(N)cc2)no1.[Ag]", 99.4),
    ("O=C1/C(=C\\c2ccccc2)CN(C(=O)CCN2CCCCC2)C/C1=C/c1ccccc1", 89.8),
    ("Cc1ccc(NC2=CC(=O)C(NO)c3ccccc32)cc1 (configuration not stated)", 38.6),
    ("O=C1CCCC1CN1CCOCC1 (configuration not stated)", 75),
    ("O=C1CSC(Cc2nc3ccccc3[nH]2)=N1", 76.7),
    ("COc1ccccc1NC(=O)O/N=C(/Cl)C(C)C", -4.65),
    ("CC(C)N(C(=O)C12C3C4C1C1C2C3C41I)C(C)C (configuration not stated)", 57.5),
    ("O=S(=O)(N=S(c1ccc(Cl)cc1)c1ccc(Cl)cc1)c1ccccc1", 49.2),
]
